Cited source for all entries: paper PMC8130932

# SYSTEM_UNDER_TEST: T1, Human coronavirus OC43 spike glycoprotein S1+S2 extracellular domain (Human coronavirus OC43, AVR40344.1 (by …))
# T1 construct: source: bought: Sino Biologicals
# T1 chain: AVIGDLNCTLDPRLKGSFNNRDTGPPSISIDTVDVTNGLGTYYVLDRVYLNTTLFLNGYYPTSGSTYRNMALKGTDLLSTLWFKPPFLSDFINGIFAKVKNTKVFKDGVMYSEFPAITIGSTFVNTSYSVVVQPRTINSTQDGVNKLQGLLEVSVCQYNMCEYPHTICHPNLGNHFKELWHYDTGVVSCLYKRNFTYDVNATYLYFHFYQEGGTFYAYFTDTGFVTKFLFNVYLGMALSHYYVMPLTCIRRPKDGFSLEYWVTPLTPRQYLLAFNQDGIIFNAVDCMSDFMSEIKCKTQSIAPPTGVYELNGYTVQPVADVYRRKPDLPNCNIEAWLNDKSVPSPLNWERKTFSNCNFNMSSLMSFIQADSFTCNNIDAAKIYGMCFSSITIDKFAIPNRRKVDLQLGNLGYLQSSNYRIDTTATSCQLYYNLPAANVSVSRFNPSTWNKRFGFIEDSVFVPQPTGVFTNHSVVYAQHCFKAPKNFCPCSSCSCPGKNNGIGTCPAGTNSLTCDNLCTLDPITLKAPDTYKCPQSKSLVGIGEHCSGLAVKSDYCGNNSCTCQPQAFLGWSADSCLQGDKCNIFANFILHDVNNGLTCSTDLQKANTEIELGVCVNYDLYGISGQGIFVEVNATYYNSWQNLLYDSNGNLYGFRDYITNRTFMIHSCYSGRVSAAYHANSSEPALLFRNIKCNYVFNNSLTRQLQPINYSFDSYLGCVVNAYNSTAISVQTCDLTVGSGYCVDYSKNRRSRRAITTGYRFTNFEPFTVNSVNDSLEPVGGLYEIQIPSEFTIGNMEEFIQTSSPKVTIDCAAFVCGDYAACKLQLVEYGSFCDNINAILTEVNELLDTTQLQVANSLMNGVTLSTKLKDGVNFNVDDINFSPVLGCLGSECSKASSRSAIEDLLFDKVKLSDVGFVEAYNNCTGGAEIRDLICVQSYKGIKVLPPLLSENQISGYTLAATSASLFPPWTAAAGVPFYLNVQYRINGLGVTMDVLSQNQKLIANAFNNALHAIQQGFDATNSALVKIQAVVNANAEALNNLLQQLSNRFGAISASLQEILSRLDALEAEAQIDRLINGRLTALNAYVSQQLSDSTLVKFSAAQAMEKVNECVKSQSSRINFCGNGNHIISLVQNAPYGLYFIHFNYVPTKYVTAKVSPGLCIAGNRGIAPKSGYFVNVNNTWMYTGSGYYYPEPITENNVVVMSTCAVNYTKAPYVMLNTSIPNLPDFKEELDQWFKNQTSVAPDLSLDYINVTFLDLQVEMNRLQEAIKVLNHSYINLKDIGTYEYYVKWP
# ASSAY_TEXT: ELISA
READOUT_LABEL: OD450 (OD450)
Write the number in OD450 without appending the unit.

A selection of reference data follows.
FN 2C (antibody, V domains shown, source: HEK293T, transfected; culture supernatant or purified) VH: EVQLLESGGGVVQPGRSLRLSCAASGFNFNNYGMHWVRQAPGKGLEWVATISYEGSKKFYVDSVKGRFTISKDNSKNTLYLQMNSLRVDDTAFYYCAKRREIFWLGEPPLSDAFDFWGQGTMVTVSS VL: QSVLTQPPSVSGAPGQRVTISCTGSGSNIGAGYDVHWYQFLPGTAPQLLIYGNNNRPSGVPDRFSGSKSGTSASLAITGLQAEDEADYYCQSYDSSLSGSVFGGGTKLTVL    2.2
FB 1E (antibody, V domains shown, source: HEK293T, transfected; culture supernatant or purified) VH: EVQLVESGAEVKKPGESLKISCQGSGYRFNSYWIAWVRQMPGKGLEWMGSIFPTDSDIRYNPSFQGQVTISADKSISIAYLQWSSLKASDTAIYYCARHWASMVRGVIRASHYYGMDVWGQGTTVTVSS VL: QSVLTQPPSASGSPGQSVTISCSGASSDIGDYNYVSWYQQLPGKAPKLLIYEVTKRPSGVPDRFSGSKSGNTASLTVSGLQADDEADYYCSSYAFGGSDIRVFGGGTKLAVL    2.34
FB 9D (antibody, V domains shown, source: HEK293T, transfected; culture supernatant or purified) VH: QVQLVESGAEVKKPGESLKISCQGSGYRFNSYWIAWVRQMPGKGLEWMGSIFPTDSDVRYNPSFQGQVTISADKSISFAYLQWSSLKASDTAIYYCARHWASMVRGVIRASHYYGMDVWGQGTTVTVSS VL: QPVLTQPPSASGSPGQSVTISCSGASSDIGKYNYVSWYQQLPGKAPKLLIYEVTKRPSGVPDRFSGSKSGNTASLTVSGLQADDEADYYCSSYAFGGSDTRVFGGGTKLTVL    2.13

Form field: reported OD450 of FJ 4E (antibody, V domains shown, source: HEK293T, transfected; culture supernatant or purified) VH: QVQLVESGPGLVKPSETLSLTCSVSGGSISSGTYYWSWIRQQPGKGLEWIGYIYNTGRPYYNPFLKSRITISVDSSKNQFSLKLTSVTAADTAVYYCARDEYDSSDSGIQGHWFDPWGQGTLVTVSS VL: AIRMTQSPSSLSASVGDRVTITCRTSQNINSFLNWYQQKPGKGPNLLIYGAFTLQSGVPSRFSGSGSGTDFTLTISSLQPEDFATYFCQQSYSTPWTFGQGTKVEIK 1.68

Try this binder too: EW 9C (antibody, V domains shown, source: HEK293T, transfected; culture supernatant or purified) VH: EVQLVESGGGVVQPGASLRLSCVASGFTFNNFGFHWVRQAPGKGLEWLAVISYEGSKTYYAESLKGRFTISRDTSKNTVYLQMNSLRAEDTAVYYCARATSIFWFGEGRNWFDPWGQGTMVTVSS VL: EIVLTQSPGTVSLSAGERATLSCRASQNVGTDLAWYVQRPGQAPRLLIYDTSNKATGIPARFSGRGSGTDFTLTIDSLEPEDFAVYYCQQRSNWPLTFGGGTKVEIR 1.82
